# Tested on: NCI/ADR-RES ovarian
# assayText: NCI tumour cell line growth inhibition, 48 h
Catalogue of molecules with associated TGI
reportedEndpoint: TGI

1. CC(O)(C#N)CC(O)(C(F)(F)Cl)C(F)(F)Cl (configuration not stated)	> 10 µM
2. COc1ccccc1/C=C1\S/C(=N/Nc2nc(C)c(C(C)=O)s2)NC1=O	> 100 µM
3. CN(C)c1ccc(/C=N/c2nc3cc4sc(/N=C/c5ccc(N(C)C)cc5)nc4cc3s2)cc1	> 100 µM
4. [N-]=[N+]=NCCCn1c2c(c3ccc([N+](=O)[O-])cc3c1=O)C(=O)c1cc(-c3ccccc3)ccc1-2	> 100 µM
5. O=c1[nH][nH]c(=O)n1/N=C/c1ccccc1	> 100 µM
6. COc1cc2ncnc(Nc3ccc(Oc4ccnc(C)c4)c(C)c3)c2cc1NC(=O)CC1CCSS1 (configuration not stated)	> 50 µM
7. COc1ccc(N2C(=O)/C(=C\c3ccccc3)SC2c2cc(OC)c(OC)c(OC)c2)cc1 (configuration not stated)	> 100 µM
8. COC(=O)c1cc(O)c(O)c(O)c1-c1c(O)c(O)c(O)c(SC[C@H](NC(=O)OCc2ccccc2)C(=O)OCc2ccccc2)c1C(=O)OC	> 100 µM
9. COc1cc([N+](=O)[O-])c(S(=O)(=O)O)cc1-n1nc(C(=O)Nc2ccccc2)n[n+]1-c1cc(S(=O)(=O)[O-])c([N+](=O)[O-])cc1OC	> 100 µM
10. CCCCCCCCCCCCN=C(N)c1ccc(N2CCN(c3ccc(C(N)=NCCCCCCCCCCCC)cc3)CC2)cc1	> 50 µM
11. COc1ccc2c(c1)CCc1cc(OC)ccc1/[N+]([O-])=[N+]\2[O-]	> 62 µM
12. Cn1c(=O)c(Oc2ccc(F)cc2F)cc2cnc(N[C@@H]3CCOC3)nc21	> 25 µM
13. Nc1ncc(C=O)c(NCC2(CO)CCC2)n1	> 100 µM
14. CCCCSCC(NC(=O)/C=C/c1c(C)[nH]c(=O)[nH]c1=O)C(=O)OC (configuration not stated)	> 450 µM
15. CC(=O)C1C(=O)C(=O)N(c2ccc([N+](=O)[O-])cc2)C1=O (configuration not stated)	> 100 µM
16. c1ccc(Oc2ccc(Nc3ncc(-c4ccccc4)o3)cc2)cc1	> 25 µM
17. COC(=O)c1c(C)c2c(c(C)c1C(=O)OC)-c1c(C)ccc3ccc(C)c-2c13	> 100 µM

###

# Test system: HCC-2998 colon
# assayText: NCI tumour cell line growth inhibition, 48 h
Where a SMILES comes first, the peptide text is derived from it. The star is where a group is joined. Cbz = O=C(OCc1ccccc1)*; Bn = c1ccc(C*)cc1
reportedEndpoint: TGI (µM)

1) COc1ccc2c(c1)CCc1cc(OC)ccc1/[N+]([O-])=[N+]\2[O-]	58.2
2) COC(=O)C(Cc1ccc(O)cc1)NC(=O)C(COCc1ccccc1)NC(=O)OCc1ccccc1 (stereo unspecified) (Cbz-Ser(Bn)-Tyr-OMe; configuration not given here)	17.3
3) O=CC1C(Cl)=Nc2nc3ccccc3n2C1c1ccccc1 (stereo unspecified)	34.8

###

# Test system: OVCAR-4 ovarian
# assayText: NCI tumour cell line growth inhibition, 48 h
reportedEndpoint: TGI

1) COc1ccc(OC)c(NC(=O)C(=O)CC(=O)c2sc(-n3nc(-c4ccccc4)cc3-c3ccccc3)nc2C)c1	> 100 µM
2) CC1C=CC(C(N)C(=O)O)O1 (stereo not drawn)	> 100 µM
3) CC1(C)C(=O)C(C)(C)C1=NNC(N)=S	> 100 µM
4) CN1C(=O)C(C(=O)Nc2ccccn2)C2C[C@@]1(C)Oc1ccccc12 (stereo partly drawn)	> 100 µM
5) c1ccc(Oc2ccc(Nc3ncc(-c4ccccc4)o3)cc2)cc1	> 25 µM
6) O=C(Nc1cc(Cl)cc(Cl)c1)c1cccc(NC2=C(Cl)C(=O)N(Cc3ccccc3)C2=O)c1	> 100 µM
7) COc1ccc(CCNC(=O)c2ccccc2C2c3ccc(OCc4ccccc4)cc3Oc3cc(OCc4ccccc4)ccc32)cc1OC	> 100 µM
8) CCOC(=O)CSC1NC(C(=O)OC)CC1OC (stereo not drawn)	> 100 µM
9) OC1CCCC2CCC[N-]C12.OC1CCCC2CCC[N-]C12.[O]=[V][OH] (stereo not drawn)	> 100 µM
10) Cc1ccc(S(=O)(=O)N/N=C2\CCC3(O)CC2(C)CCC2C3CC2(C)C)cc1 (stereo not drawn)	> 100 µM
11) O=C1CCC2c3ccccc3NCN12 (stereo not drawn)	> 100 µM
12) COc1cc2c(oc(=O)c3cc4cc([Si](C)(C)C)oc4c(OC)c32)c2cccc(O)c12	> 100 µM
13) COc1ccc(-c2csc(Cc3nc4c(Br)cc(Br)cc4c(=O)n3-c3ccc(OC)cc3)n2)cc1	> 100 µM
14) COc1ccc(N2C(=O)/C(=C\c3ccccc3)SC2c2cc(OC)c(OC)c(OC)c2)cc1 (stereo not drawn)	> 100 µM
15) C[C@]12CC[C@H](O)CC1=CC[C@@H]1C2CC[C@]2(C)C(=O)NC(=O)CC12 (stereo partly drawn)	> 100 µM
16) CN(C)C(=S)C(Cl)(c1ccccc1)c1ccccc1	> 100 µM
17) COS(C)(=O)=O	> 2 µM
18) O=C1Cc2cc(CCn3cncn3)c(Cl)cc2N1	> 100 µM
19) CC(C)OC/N=C(/N)NC#N	> 100 µM
20) O=C(CSCC(=O)N/N=C\c1ccc(O)c(O)c1O)N/N=C\c1ccc(O)c(O)c1O	9.22 µM
21) COc1ccc2c(c1)/C(=C\c1c(-c3cc(OC)ccc3OC)nc3sccn13)C(=O)N2	2.87 µM
22) CCn1c(=O)c(C(=O)O)c(Cl)c2cc3c(cc21)OCO3	> 100 µM
23) O=C(Nc1cc(Cl)ccc1O)c1cccc(Nc2ccnc(C(F)(F)F)c2)c1	17.4 µM
24) Nc1nc(Cl)c2ncn(Cc3cccc(CCl)c3)c2n1	5.07 µM
25) CCOC(=O)CCC(NC(=O)c1ccc(Oc2nc3c(N)cc(C(F)(F)F)cc3nc2-c2ccccc2)cc1)C(=O)OCC (stereo not drawn)	> 100 µM
26) CC1(C)Cc2c(oc3ncnc(N)c23)CS1	> 100 µM
27) CC1=CP(=O)(c2ccccc2)C=C(C)C1=C(Cl)Cl (stereo not drawn)	26 µM
28) CC(C)(C)OC(=O)[C@@H]1ON2O[C@H](OC3CCCC3(c3ccccc3)c3ccccc3)C[C@H]3OC(=O)[C@@H]1[C@H]32 (stereo partly drawn)	54.3 µM

###

# Tested on: NCI-H460 lung
# assayText: NCI tumour cell line growth inhibition, 48 h
reportedEndpoint: TGI

1) CC1(C)Cc2c(oc3ncnc(N)c23)CS1	> 100 µM
2) CCCCNC(=S)OCCC(C)CCCC(C)C (stereo not drawn)	> 100 µM
3) CCOC(=O)/C(C(=S)NCc1ccccc1)=C(/N)N1CCCC1	> 100 µM

###

# Tested on: SF-268 CNS
# assayText: NCI tumour cell line growth inhibition, 48 h
reportedEndpoint: TGI

1. c1ccc(-c2c(-c3cccs3)[nH]c(-c3cccs3)c2-c2ccccn2)nc1	49.8 µM
2. COc1cc([C@@H]2c3cc4c(cc3[C@@H](OC(=O)c3cccc(N)c3)C3COC(=O)[C@@H]32)OCO4)cc(OC)c1O (some centres not stated)	> 61.1 µM
3. CC(=O)/C(Br)=C/c1ccc(Br)o1	23.6 µM
4. CC(=O)Nc1ccc(S(=O)(=O)N=S(C)C)cc1	> 100 µM
5. COc1ccc(C(=O)c2cc3c(N)c(C(=O)Nc4cccc(Br)c4C)sc3nc2C)cc1	> 100 µM
6. CC(C)OC/N=C(/N)NC#N	> 100 µM
7. CCc1c(CNC2=NCCN2)c(CC)c(CNC2=NCCN2)c(CC)c1CNC1=NCCN1	> 100 µM
8. CN1C(=O)C(C(=O)Nc2ccccn2)C2C[C@@]1(C)Oc1ccccc12 (some centres not stated)	> 100 µM
9. N#CC(C#N)=c1c2ccccc2c(=C(C#N)C#N)c2ccccc12	77.5 µM
10. O=C(Nc1cc(Cl)ccc1O)c1cccc(Nc2ccnc(C(F)(F)F)c2)c1	22.8 µM
11. C1CSCCSCSCCS1	> 100 µM
12. NC(CCP(=O)(O)O)C(=O)O (configuration not stated)	> 100 µM
13. CC(C)(C)OC(=O)[C@@H]1ON2O[C@H](OC3CCCC3(c3ccccc3)c3ccccc3)C[C@H]3OC(=O)[C@@H]1[C@H]32 (some centres not stated)	> 100 µM
14. CN(C)C(=S)C(Cl)(c1ccccc1)c1ccccc1	> 100 µM
15. CCOC(=O)OC1C(Br)C2CCC1(C)C2(C)C (configuration not stated)	29.6 µM
16. Cc1ccc(N=C2N=C(N3CC(C)OC(C)C3)c3ccccc32)cc1 (configuration not stated)	> 100 µM
17. CCCCCCCCCCCCN=C(N)c1ccc(N2CCN(c3ccc(C(N)=NCCCCCCCCCCCC)cc3)CC2)cc1	21.1 µM
18. COc1ccc(-c2cc(-c3ccc(Cl)cc3)nc(NCCCCNc3ccnc4cc(Cl)ccc34)n2)cc1	6.31 µM
19. NC(Cc1c[nH]c2ccc([N+](=O)[O-])cc12)C(=O)O (configuration not stated)	> 100 µM
20. COC(=O)CC(C(C(=O)OC)C(=O)OC)N1C(=O)OC(c2ccccc2)C1c1ccccc1 (configuration not stated)	> 100 µM
21. Cc1c2ccncc2c(C)c2c1[nH]c1ccc(Oc3ccccc3)cc12	> 28.4 µM
22. C=C1C(=O)O[C@H]2[C@H]1CC/C(COC(=O)/C=C\C(=O)NCc1ccc(Cn3c(=O)sn(CCI)c3=O)cc1)=C\CC[C@@]1(C)O[C@@H]21	23.6 µM
23. N#C/C(=C1\OC(=N)C(c2ccccc2)C1=O)c1ccccc1 (configuration not stated)	> 100 µM
24. COc1ccc(CCNC(=O)c2ccccc2C2c3ccc(OCc4ccccc4)cc3Oc3cc(OCc4ccccc4)ccc32)cc1OC	> 100 µM
25. Nc1nc(Cl)c2ncn(Cc3cccc(CCl)c3)c2n1	18.9 µM
26. Clc1cccc(CNc2c3ccccc3nc3ccccc23)c1	7.88 µM
27. CC1(C)c2ccccc2N2O[C@@H]3C(=O)N(c4ccccc4)C(=O)[C@@H]3C21c1ccccc1 (some centres not stated)	> 100 µM
28. CC1C=CC(C(N)C(=O)O)O1 (configuration not stated)	> 100 µM
29. O=C(N=c1nc(NC(=O)c2ccccc2)ss1)c1ccccc1	> 100 µM
30. O=C(CSCC(=O)N/N=C\c1ccc(O)c(O)c1O)N/N=C\c1ccc(O)c(O)c1O	> 100 µM
31. O=C(COc1ccccc1)N(C(=O)N1CCN(c2ccccc2)CC1)S(=O)(=O)c1ccccc1	> 100 µM
32. Nc1ncc(C=O)c(NCC2(CO)CCC2)n1	> 100 µM
